target: recombinant MBP-tagged LINE1 protein (238-1061) (Homo sapiens, UniProt O00370); construct: recombinant MBP-tagged LINE1 protein (238-1061); test: Homogeneous time-resolved fluorescence (HTRF) LINE1 RT assay; details: tetra(sodium) salt; 25° C., 60 minutes
readout-type: pIC50
As a rule, pIC50 stands for the negative log10 of the concentration, concentration in M.

INPUT: Query (compound): C[C@H](Cn1cnc2c(N)ncnc21)OCP(=O)(O)OP(=O)(O)OP(=O)(O)O [drawing 1227] ; field requested: pIC50
OUTPUT: 7.15

* * *

target: LINE1 reverse transcriptase (Homo sapiens, UniProt O00370); test: Stable artificial-intron Cis LINE1 reporter assay; assay type: cell-based; set-up: expressed in transfected cells; host or cells: HeLa Tet-On 3G (Takara, cat no 631183); settings: HeLa Tet-On 3G L1 reporter cells, doxycycline 500 ng/mL, 72 h, Firefly luciferase; read-out: IC50
readout-type: IC50

Some entries whose results are on file:
INSERT INTO assay_data (compound, target_or_test_system, readout_type, test_result) VALUES
  ('Cc1cn([C@H]2C[C@H](N=[N+]=[N-])[C@@H](CO)O2)c(=O)[nH]c1=O [AZT (zidovudine), zidovudine, reference compound]', 'LINE1 reverse transcriptase (Homo sapiens, UniProt O00370)', 'IC50', '> 500 nM'),
  ('C[C@H](Cc1ccc2c(N)ncnn12)OCP(=O)(O)O [Compound V-105]', 'LINE1 reverse transcriptase (Homo sapiens, UniProt O00370)', 'IC50', '> 500 nM'),
  ('CC(C)OC(=O)OCOP(=O)(CO[C@H](C)Cc1ccc2c(N)ncnn12)OCOC(=O)OC(C)C [Compound V-106]', 'LINE1 reverse transcriptase (Homo sapiens, UniProt O00370)', 'IC50', '> 500 nM'),
  ('Nc1nc(=O)c2ncn([C@@H]3C[C@H](CO)[C@H]3CO)c2[nH]1 [lobucavir, reference compound]', 'LINE1 reverse transcriptase (Homo sapiens, UniProt O00370)', 'IC50', '> 500 nM'),
  ('CC(C)OC(=O)[C@H](C)NP(=O)(CO[C@H](C)Cc1ccc2c(N)ncnn12)Oc1ccccc1 (stereo partly shown) [Compound I-115]', 'LINE1 reverse transcriptase (Homo sapiens, UniProt O00370)', 'IC50', '50 to 500 nM');

INPUT: Short answer please: IC50, LINE1 reverse transcriptase (Homo sapiens, UniProt O00370), entry CC(C)OC(=O)C(C)(C)N[P@](=O)(CO[C@H](C)Cn1cnc2c(N)ncnc21)Oc1ccccc1 [Compound I-20]
OUTPUT: < 50 nM

INPUT: Field entry: CC(C)OC(=O)C(C)(C)N[P@@](=O)(CO[C@H](C)Cn1cnc2c(N)ncnc21)Oc1ccccc1 [Compound I-21]
OUTPUT: 50 to 500 nM

* * *

assay: CellTiter-Glo cell viability in THP1-Dual KO-TREX1 cells; format: cell-based; details: human, 10 μM compound (highest dose), five days, read-out: CellTiter-Glo average inhibition (cell viability)
# cytotoxicity at 5 days, 10 μM per record follows
Dear colleague, please return just the value in %, with no unit written.

INSERT INTO measurements (compound, readout_type, units_label, test_result) VALUES
  ('CC(C)OC(=O)C(C)(C)N[P@](=O)(CO[C@H](C)Cn1cnc2c(N)ncnc21)Oc1ccccc1 [Compound I-20]', 'cytotoxicity at 5 days, 10 μM', '%', 65);

Now for another entry.
INPUT: Query (compound): CC(C)OC(=O)[C@H](C)N[P@](=O)(CO[C@H](C)Cn1cnc2c(N)ncnc21)Oc1ccccc1 [Compound I-1] ; field requested: cytotoxicity at 5 days, 10 μM
OUTPUT: 57

* * *

tested on: Type 1 Interferon; assay: Cellular assay for altering IFN production in THP1 TREX1 KO cells; assay type: cell-based; settings: THP1-Dual KO-TREX1 cells, 1 μM 5-aza-2′-deoxycytidine, five days; direction of effect per figure legend
readout-type: changes in IFN levels (inhibition or induction of IFN)

Some entries whose results are on file:
INSERT INTO assay_data (molecule, test_result) VALUES
  ('C[C@H](Cn1cnc2c(N)ncnc21)OCP(=O)(O)O [Compound V-1]', 'inhibition of IFN'),
  ('CC(C)OC(=O)[C@H](C)NP(=O)(CO[C@H](C)Cc1ccc2c(N)ncnn12)Oc1ccccc1 (stereo partly drawn) [Compound I-115]', 'induction of IFN'),
  ('CC(C)OC(=O)[C@H](C)N[P@](=O)(CO[C@H](C)Cn1cnc2c(N)ncnc21)Oc1ccccc1 [Compound I-1]', 'inhibition of IFN'),
  ('CC(C)OC(=O)C(C)(C)N[P@@](=O)(CO[C@H](C)Cn1cnc2c(N)ncnc21)Oc1ccccc1 [Compound I-21]', 'induction of IFN'),
  ('CC(C)OC(=O)C(C)(C)N[P@](=O)(CO[C@H](C)Cn1cnc2c(N)ncnc21)Oc1ccccc1 [Compound I-20]', 'inhibition of IFN');

INPUT: Query (molecule): CCCCCCCCCCCCCCCCOCCCOP(=O)(O)CO[C@H](C)Cn1cnc2c(N)ncnc21 [VI-1] ; field requested: changes in IFN levels (inhibition or induction of IFN)
OUTPUT: induction of IFN

* * *

molecular target: LINE1 reverse transcriptase (Homo sapiens); experiment: Stable artificial-intron Cis LINE1 reporter assay; assay type: cell-based; design: expressed in transfected cells; host or cells: HeLa Tet-On 3G (Takara, cat no 631183); details: HeLa Tet-On 3G L1 reporter cells, doxycycline 500 ng/mL, 72 h, Firefly luciferase; read-out: IC50
pIC50: −log10 of the molar value.
readout-type: pIC50

Some entries whose results are on file:
INSERT INTO measurements (compound, readout_type, test_result) VALUES
  ('CCCCCCCCCCCCCCCCOCCCOP(=O)(O)CO[C@H](C)Cn1cnc2c(N)ncnc21', 'pIC50', '6.30 to 7.30'),
  ('CC(C)OC(=O)OCOP(=O)(CO[C@H](C)Cn1cnc2c(N)ncnc21)OCOC(=O)OC(C)C', 'pIC50', '6.30 to 7.30'),
  ('Nc1ccn([C@@H]2CS[C@H](CO)O2)c(=O)n1 [lamivudine (3TC), lamivudine, reference compound]', 'pIC50', '< 6.30');

INPUT: Short answer please: pIC50, LINE1 reverse transcriptase (Homo sapiens), entry `C[C@H](Cn1cnc2c(N)ncnc21)OCP(=O)(O)O`
OUTPUT: < 6.30

* * *

biological target: HERV-K reverse transcriptase (2-596)-8His protein (Homo sapiens)
Sequence (V9H0F6 entry or part of it): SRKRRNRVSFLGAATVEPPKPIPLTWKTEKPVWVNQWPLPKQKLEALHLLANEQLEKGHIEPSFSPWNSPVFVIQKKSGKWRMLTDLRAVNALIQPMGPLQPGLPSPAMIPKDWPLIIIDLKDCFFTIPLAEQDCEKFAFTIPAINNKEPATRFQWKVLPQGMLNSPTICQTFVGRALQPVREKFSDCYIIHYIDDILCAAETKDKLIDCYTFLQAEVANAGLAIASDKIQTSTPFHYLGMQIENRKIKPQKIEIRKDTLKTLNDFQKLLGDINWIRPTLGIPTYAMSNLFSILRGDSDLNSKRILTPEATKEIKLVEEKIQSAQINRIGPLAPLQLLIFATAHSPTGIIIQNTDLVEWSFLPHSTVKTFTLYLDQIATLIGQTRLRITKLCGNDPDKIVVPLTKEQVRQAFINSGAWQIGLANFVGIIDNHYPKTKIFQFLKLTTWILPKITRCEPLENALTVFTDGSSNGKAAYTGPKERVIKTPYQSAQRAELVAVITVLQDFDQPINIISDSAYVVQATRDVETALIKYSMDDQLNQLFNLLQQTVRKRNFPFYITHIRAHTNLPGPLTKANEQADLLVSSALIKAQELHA
readout-type: pIC50
As a rule, pIC50 stands for the negative log10 of the concentration, concentration in M.

INPUT: Query (compound): C[C@H](Cn1cnc2c(N)ncnc21)OCP(=O)(O)OP(=O)(O)OP(=O)(O)O [drawing 1228] ; field requested: pIC50
OUTPUT: 7.70

* * *

# IC50 per record follows
Molecular target: LINE1 reverse transcriptase (Homo sapiens)
Test: Transient artificial-intron Cis LINE1 reporter assay
Assay type: cell-based
Design: expressed in transfected cells
Conditions: HEK 293 cells, FLuc/RLuc ratio, transient LINE1 reporter; read-out: IC50
Procedure: Intron-disrupted Firefly luciferase (FLuc) expression cassettes were generated as described by Xie, Y. et al. “Characterization of L1 retrotransposition with high-throughput dual-luciferase assays,” Nucleic Acid Res. (2011) Vol. 39, No. 3, e16. […] Luminescence was measured using the Dual-Glo Luciferase Assay System (Promega) following the manufacturer's instructions. […]

INSERT INTO measurements (compound, target_or_test_system, readout_type, test_result) VALUES
  ('C[C@H](Cn1cnc2c(N)ncnc21)OCP(=O)(O)O [Compound V-1]', 'LINE1 reverse transcriptase (Homo sapiens)', 'IC50', '> 500 nM');

Now for another entry.
INPUT: Short answer please: IC50, LINE1 reverse transcriptase (Homo sapiens), entry CC(C)OC(=O)OCOP(=O)(CO[C@H](C)Cn1cnc2c(N)ncnc21)OCOC(=O)OC(C)C [Compound V-7]
OUTPUT: < 50 nM
